Catalogue of sequences with associated phosphorylation enrichment
# STUDY TARGET: EPHB2 (UniProt P29323)
# Sequence (P29323 whole entry, looked up): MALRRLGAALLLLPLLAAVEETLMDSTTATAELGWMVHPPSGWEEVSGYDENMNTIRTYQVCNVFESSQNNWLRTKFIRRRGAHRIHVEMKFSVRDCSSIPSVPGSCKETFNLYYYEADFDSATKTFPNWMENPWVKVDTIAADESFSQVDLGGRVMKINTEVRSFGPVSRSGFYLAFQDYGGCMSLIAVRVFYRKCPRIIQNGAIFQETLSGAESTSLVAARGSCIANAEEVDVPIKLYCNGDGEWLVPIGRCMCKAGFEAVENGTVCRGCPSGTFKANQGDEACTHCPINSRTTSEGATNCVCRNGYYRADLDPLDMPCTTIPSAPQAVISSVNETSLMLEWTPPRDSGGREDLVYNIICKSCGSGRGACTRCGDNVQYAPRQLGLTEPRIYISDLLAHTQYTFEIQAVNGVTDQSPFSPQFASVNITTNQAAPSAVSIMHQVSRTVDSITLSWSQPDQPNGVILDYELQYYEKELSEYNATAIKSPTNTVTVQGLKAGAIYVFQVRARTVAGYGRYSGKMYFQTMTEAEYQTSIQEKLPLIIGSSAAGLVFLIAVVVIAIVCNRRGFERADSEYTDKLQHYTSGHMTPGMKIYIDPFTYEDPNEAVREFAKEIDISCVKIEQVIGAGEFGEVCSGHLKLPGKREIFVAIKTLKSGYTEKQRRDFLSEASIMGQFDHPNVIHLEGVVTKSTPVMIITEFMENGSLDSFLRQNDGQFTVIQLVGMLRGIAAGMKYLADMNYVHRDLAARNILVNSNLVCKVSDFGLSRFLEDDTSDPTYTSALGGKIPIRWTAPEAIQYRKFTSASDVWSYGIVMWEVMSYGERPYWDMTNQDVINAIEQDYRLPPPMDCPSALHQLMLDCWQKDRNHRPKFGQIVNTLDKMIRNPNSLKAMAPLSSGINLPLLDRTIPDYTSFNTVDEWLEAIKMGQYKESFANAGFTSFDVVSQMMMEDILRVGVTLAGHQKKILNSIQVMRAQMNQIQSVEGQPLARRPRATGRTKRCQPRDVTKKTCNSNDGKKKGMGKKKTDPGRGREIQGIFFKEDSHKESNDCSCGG
# METHOD: phosphorylation enrichment, bacterial display (enrichment ratio); higher = better substrate or ligand; peptides without Tyr show the background;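 also: 11-residue human phosphosite peptides and single-mutation variants displayed on the E. coli surface, counted by deep sequencing, each peptide's frequency after selection divided by its frequency in the unselected input library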;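 also: frequency after pTyr selection over input frequency; kinase dosed for 20-30% of maximal phosphorylation in three min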

RESIDUE STRING: ERIELYELDKK [PMM2_Y145_F144L]
STUDY TARGET: EPHB2 (UniProt P29323)
phosphorylation enrichment: 0.589

RESIDUE STRING: VVTGPYEKPSL [KIR3DS1_Y221_L220P]
STUDY TARGET: EPHB2 (UniProt P29323)
phosphorylation enrichment: 0.513

RESIDUE STRING: MPLTEYLKQIK [CNGB3_Y200_R203Q]
STUDY TARGET: EPHB2 (UniProt P29323)
phosphorylation enrichment: 0.511

RESIDUE STRING: SVVMPYEPPEV [TP53_Y220_V218M]
STUDY TARGET: EPHB2 (UniProt P29323)
phosphorylation enrichment: 0.595

RESIDUE STRING: VFLARYGPAWR [CYP2D6_Y124]
STUDY TARGET: EPHB2 (UniProt P29323)
phosphorylation enrichment: 0.598

RESIDUE STRING: ATHSGYRLNDF [CLDN14_Y233_YF]
STUDY TARGET: EPHB2 (UniProt P29323)
phosphorylation enrichment: 0.514

RESIDUE STRING: KFFRVYQGQQP [MUTYH_Y494_V490F]
STUDY TARGET: EPHB2 (UniProt P29323)
phosphorylation enrichment: 0.507

RESIDUE STRING: TRSYKCLLLSM [NF1_Y491_Y491C]
STUDY TARGET: EPHB2 (UniProt P29323)
phosphorylation enrichment: 0.487
